Test system: OVCAR-8 ovarian
Assay: NCI-60 one-dose screen, 48 h (100 = growth as untreated, 0 = no growth, -100 = all killed)
Conditions: 10 µM unless noted
Compounds without any hit were thinned out: in the full panel of roughly 83,000, 20% have a hit.
Sorting guide: entries reporting growth beneath 40% go in the Condition met pile, the rest go in the Condition not met pile.

Some entries whose results are on file:
compound=O=[N+]([O-])c1ccc2[nH]c3nccc(NCc4cccc(Cl)c4)c3c2c1 assayed_system="OVCAR-8 ovarian" classification="Condition met"
compound=COC(=O)c1nc(-c2ccc(C)cc2)oc1S(=O)(=O)c1ccc(Cl)cc1 assayed_system="OVCAR-8 ovarian" classification="Condition not met"
compound=COc1ccc(/C(C)=C(\c2ccc(OCCN3CCCCCC3)cc2)c2ccc(OC(=O)C3CCCCC3)cc2)cc1 assayed_system="OVCAR-8 ovarian" classification="Condition met"
compound=CCOC(=O)c1c(-c2ccc(C)cc2)c(C#N)c(=O)n(-c2cccc(C(F)(F)F)c2)c1N assayed_system="OVCAR-8 ovarian" classification="Condition not met"
compound="N#CC(Cc1cccc2ccccc12)c1cc2ccccc2[nH]1 (centres undefined)" assayed_system="OVCAR-8 ovarian" classification="Condition not met"
compound="COC(=O)/C=C1/SC(N2N=C(c3cccs3)CC2c2ccc(F)cc2)=NC1=O (centres undefined)" assayed_system="OVCAR-8 ovarian" classification="Condition not met"
compound="CN(Cc1ccccc1)c1nc(Cl)c(C2CC(c3ccc4c(c3)OCO4)=NN2c2cc(Cl)cc(Cl)c2)s1 (centres undefined)" assayed_system="OVCAR-8 ovarian" classification="Condition not met"
compound=O=c1cc(N/N=C/c2ccc(F)cc2)c2cc(Cl)ccc2[nH]1 assayed_system="OVCAR-8 ovarian" classification="Condition not met"
compound=CCOC(=O)CCCn1c(-c2ccccc2)cc(-c2ccccc2)c(C#N)c1=O assayed_system="OVCAR-8 ovarian" classification="Condition not met"
compound=NC1=CC(=O)c2cccnc2C1=O assayed_system="OVCAR-8 ovarian" classification="Condition met"

Ask: Lab log: compare recorded growth with 40%; is it strictly lower for C[C@@H]1O[C@@H](O[C@H]2[C@@H](OC(=O)[C@]34CCC(C)(C)C[C@H]3C3=CC[C@@H]5[C@@]6(C)C[C@H](O)[C@H](O[C@@H]7O[C@H](CO)[C@@H](O)[C@H](O)[C@H]7O)[C@@](C)(CO)[C@@H]6CC[C@@]5(C)[C@]3(C)C[C@H]4O)OC[C@@H](O)[C@@H]2O)[C@H](O)[C@H](O[C@@H]2OC[C@@H](O)[C@H](O[C@@H]3OC[C@](O)(CO)[C@H]3O[C@@H]3OC[C@@H](O)[C@H](O)[C@H]3O)[C@H]2O)[C@H]1O[C@@H]1OC[C@](O)(CO)[C@H]1O ?
Result: Condition not met

Ask: # TODO verify growth < 40% strictly for this compound: CC(=O)c1nn(-c2ccccc2)/c(=N/N=Cc2cn(-c3ccccc3)nc2-c2cc3ccccc3oc2=O)s1
Result: Condition not met

Ask: Here's an entry: CN(C)C(=O)c1cc2cnc(Nc3ccc(-c4csc5c(=S)cc(N6CCOCC6)oc45)cc3)nc2n1C1CCCC1 . Is its growth below 40%?
Result: Condition met

Ask: Hello, is growth of the following compound strictly smaller than 40%? CCOC(=O)C(=CCC(C)C)C(=O)OCC
Result: Condition not met

---

Tested on: 786-0 renal
Assay: NCI-60 one-dose screen, 48 h (100 = growth as untreated, 0 = no growth, -100 = all killed)
Details: 10 µM unless noted
This is part of a sample that, as a whole, favours compounds with a hit. Of some 83,000 tested, about 20% had one in any assay.
Measured growth by item
Use % as the unit, but write only the number.

smiles=Nn1c(-c2ccc(Cl)cc2)nc2c(-c3ccc(Cl)cc3)nc3ccc(Cl)cc3c2c1=O experimental_result=-65.3

Ask: Look up and state reported growth for NC1=CC(=O)c2cccnc2C1=O
Result: 26.5

Ask: Name the recorded growth of the compound listed here: COc1ccc(-c2cc(-c3cccnc3)nc3sc4c(Cl)nnnc4c23)cc1OC
Result: 109

Ask: Determine its reported growth: CCOC(=O)c1c(-c2ccc(C)cc2)c(C#N)c(=O)n(-c2cccc(C(F)(F)F)c2)c1N
Result: 102

Ask: Read off the recorded growth for O=C(/C=C/c1ccc(F)cc1)Nc1ncc(Cc2ccc(F)cc2)s1
Result: 46.7

---

Tested on: COLO 205 colon
Test: NCI-60 one-dose screen, 48 h (100 = growth as untreated, 0 = no growth, -100 = all killed)
Details: 10 µM unless noted
The panel holds about 83,000 compounds, 20% with a hit somewhere; the sample as a whole holds those more often.
Label false if growth falls below 80%; label true in every other case.

Study these solved cases before continuing.
smiles=CC/C(=C(/c1ccc(O)cc1)c1ccc(OCCN2CCCCCC2)cc1)c1ccc(Cl)cc1 assayed_system="COLO 205 colon" classification=false
smiles=CCOC(=O)c1nnn(Cc2cc(=O)oc3c2ccc2ccccc23)c1C assayed_system="COLO 205 colon" classification=true
smiles=CCCCCCCC/C=C\CCCCCCCCOc1ccccc1CC(=O)NCC[N+]1(C)CCOCC1 assayed_system="COLO 205 colon" classification=false

Here is another molecule to look at.
Ask: Confirm if growth reported for the molecule COC(=O)c1nc(-c2ccc(C)cc2)oc1Sc1ccc(C)cc1 is 80% or above.
Result: true

---

List of growth values.
Test system: SW-620 colon
Test: NCI-60 one-dose screen, 48 h (100 = growth as untreated, 0 = no growth, -100 = all killed)
Details: 10 µM unless noted
The panel holds about 83,000 compounds, 20% with a hit somewhere; the sample as a whole holds those more often.
API: value field is a number in %; no unit string.

Worked examples, 3 compounds total:
compound=Cc1ccc(S(=O)(=O)OC[C@@]2(C)CC[C@]3(C)CC[C@]4(C)C(=CC[C@@H]5[C@@]6(C)CCCNC(C)(C)[C@@H]6CC[C@]54C)[C@@H]3C2)cc1 measure_name=growth unit_abbreviation=% experimental_result=-81.9
compound=O=C(c1ccc(Nc2nccc(NCCCNc3ccnc4cc(Cl)ccc34)n2)cc1)N1CCCCC1 measure_name=growth unit_abbreviation=% experimental_result=26.3
compound=CCN(C(=O)N1CCN(c2cc3c(cc2F)c(=O)c(C(=O)O)cn3C2CC2)CC1)c1nc(-c2ccccc2)cs1 measure_name=growth unit_abbreviation=% experimental_result=23.3

Field: next compound
Ask: Would you please give the reported growth of O=C(Nc1ccccc1C(=O)N/N=C(\c1ccccc1)c1ccccn1)c1ccccc1 with SW-620 colon?
Result: 29.2

---

System: U251 CNS
Assay: NCI-60 one-dose screen, 48 h (100 = growth as untreated, 0 = no growth, -100 = all killed)
Conditions: 10 µM unless noted
Compounds without any hit were thinned out: in the full panel of roughly 83,000, 20% have a hit. Activity calls are given as the source filed them. The calls were made as follows: active = growth percent below 10; inactive = the rest.
# growth per record follows

compound=CC(=O)c1c(C)nc(SCC(=O)Nc2ccc(Cl)cc2)n1-c1ccc(Cl)cc1 experimental_result="89.8% (inactive)"
compound="C#CCOc1cccc(Nc2ncc3ncn(C4CCN(C(=O)CCl)C4)c3n2)c1 (configuration not stated)" experimental_result="43.2% [6.25 µM] (inactive)"
compound=COc1cc(-c2nc(SCCC(C)C)nc(Nc3ccc(F)cc3)c2C#N)cc(OC)c1OC experimental_result="29.7% (inactive)"

Ask: Give the reported growth for this compound. CN1CCN(C(=O)OCc2nc3c(N4CCOCC4)nc(Cl)nc3n2C)CC1
Result: -14.1% (active)

Ask: Give recorded growth. CCN1C(=O)/C(=c2\sc3n(c2=O)C2C(NN=3)N(CC)C(=O)N2CC)c2ccccc21 (configuration not stated)
Result: 32.3% (inactive)

Ask: Dear colleague, please send me the reported growth for NCCOCCOc1ccccc1 when you can.
Result: 96.1% (inactive)

Ask: Fill in growth for record Cc1nn(-c2nc(-c3cc4ccccc4oc3=O)cs2)c(C)c1N=Nc1ccccc1
Result: 88.8% (inactive)

Ask: Tell me growth reported for COc1ccc(-c2ccc(-c3ccc(C(=N)N)cn3)o2)cc1Cl
Result: 0.889% (active)

Ask: Give growth for COc1cc(-c2nc3occn3c2-c2ccnc(NCCCNS(=O)(=O)c3ccc(O)cc3)n2)ccc1F
Result: 108% (inactive)

Ask: Report measured growth; entry is C#Cc1cc(C(=O)Nc2ccc(CN3CCN(C)CC3)c(C(F)(F)F)c2)ccc1C
Result: 56% (inactive)

Ask: In one line, give reported growth of the entry CN1C(=O)/C(=C/c2ccc(C(=O)Nc3ncc(Cc4ccccc4Cl)s3)cc2)SC1=S .
Result: 89.4% (inactive)

Ask: Indicate its recorded growth; the compound in question is Clc1cccc(Nc2ncnc3ccc(-c4cncc(-n5cnnn5)c4)cc23)c1
Result: 76.1% (inactive)

Ask: Give the measured growth for COc1ccc2c(O)c(/C=C3\N=Nc4nc(C)ccc43)oc2c1CC1CCNCC1
Result: 21.4% (inactive)

Ask: Complete the entry with growth for Fc1ccccc1-c1cnn2cc(-c3ccccc3)cnc12
Result: 98.9% (inactive)

Ask: Give me measured growth, please, for this compound: CN1CCN(Cc2ccc(NC(=O)c3cccc(C#Cc4c(N)ncc5ccc(F)cc45)c3)cc2C(F)(F)F)CC1
Result: -67.9% (active)

Ask: Return growth (reported value) for this compound: COc1ccc(-c2cc(-c3cccc(Cl)c3)c(C#N)c(=O)[nH]2)c(OC)c1
Result: 96.4% (inactive)

Ask: Supply reported growth belonging to this compound: Clc1ccc2c(NCCN3CCN(c4ccnc(N5CCCC5)n4)CC3)ccnc2c1
Result: 6.81% (active)
